pEC50 listing for selected compounds.
Target: ΔF508-CFTR (Homo sapiens, UniProt P13569, DEL508-508)
Construct: host or cells: CFBE41o-, doxycycline-inducible
Sequence (P13569 with tags, fused parts or gaps DEL508-508): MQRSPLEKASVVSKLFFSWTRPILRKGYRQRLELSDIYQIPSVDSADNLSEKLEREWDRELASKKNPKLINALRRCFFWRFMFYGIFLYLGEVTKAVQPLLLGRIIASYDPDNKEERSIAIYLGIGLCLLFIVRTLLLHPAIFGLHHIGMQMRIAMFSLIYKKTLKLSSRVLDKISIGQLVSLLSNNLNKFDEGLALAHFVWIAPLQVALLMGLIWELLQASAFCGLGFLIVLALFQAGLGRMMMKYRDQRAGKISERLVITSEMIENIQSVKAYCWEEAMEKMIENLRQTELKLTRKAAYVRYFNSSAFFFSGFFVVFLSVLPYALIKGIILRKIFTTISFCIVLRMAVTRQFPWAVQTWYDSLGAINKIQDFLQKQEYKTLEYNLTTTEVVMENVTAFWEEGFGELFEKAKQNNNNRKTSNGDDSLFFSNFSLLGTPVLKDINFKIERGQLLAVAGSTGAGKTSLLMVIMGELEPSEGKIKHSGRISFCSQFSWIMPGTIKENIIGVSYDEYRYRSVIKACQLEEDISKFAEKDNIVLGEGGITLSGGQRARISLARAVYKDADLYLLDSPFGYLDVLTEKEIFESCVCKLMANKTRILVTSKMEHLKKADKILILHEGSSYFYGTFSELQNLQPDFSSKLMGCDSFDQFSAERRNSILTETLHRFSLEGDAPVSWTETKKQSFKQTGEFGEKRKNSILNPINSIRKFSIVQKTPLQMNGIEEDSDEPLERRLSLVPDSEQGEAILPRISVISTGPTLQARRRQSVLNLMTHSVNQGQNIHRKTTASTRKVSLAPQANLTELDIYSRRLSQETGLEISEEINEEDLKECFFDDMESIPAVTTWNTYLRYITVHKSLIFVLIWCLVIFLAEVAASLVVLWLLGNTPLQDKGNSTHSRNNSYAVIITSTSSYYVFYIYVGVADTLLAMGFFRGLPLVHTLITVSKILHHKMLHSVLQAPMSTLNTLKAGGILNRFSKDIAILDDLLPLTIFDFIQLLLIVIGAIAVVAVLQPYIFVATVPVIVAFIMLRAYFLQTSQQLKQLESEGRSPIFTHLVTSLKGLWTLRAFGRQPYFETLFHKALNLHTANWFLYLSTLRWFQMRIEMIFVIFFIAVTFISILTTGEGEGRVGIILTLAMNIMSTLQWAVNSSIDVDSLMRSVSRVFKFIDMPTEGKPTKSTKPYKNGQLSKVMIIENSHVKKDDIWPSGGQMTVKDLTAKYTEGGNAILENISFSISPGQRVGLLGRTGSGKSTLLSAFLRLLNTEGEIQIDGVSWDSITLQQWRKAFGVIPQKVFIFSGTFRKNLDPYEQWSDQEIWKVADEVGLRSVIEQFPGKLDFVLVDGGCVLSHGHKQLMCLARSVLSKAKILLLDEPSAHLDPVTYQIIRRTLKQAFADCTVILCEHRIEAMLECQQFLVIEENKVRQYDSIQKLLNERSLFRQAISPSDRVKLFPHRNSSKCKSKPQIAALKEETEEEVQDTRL
Assay: CFTR cell surface levels using HRP-tagged ΔF508-CFTR expressing CFBE cells, in the presence of a co-corrector
Type: cell-based
Settings: HRP-tagged ΔF508-CFTR expressing CFBE cells, in the presence of 3 μM co-corrector; read-out: EC50
Quick note: pEC50 values are minus log10 of concentrations in mol/L.

Worked set:
>>> test_result("CC(C)c1nn(-c2cc(Cl)ccn2)c2nc(C(=O)O)cc(-c3ccc(N4CCOCC4)cc3)c12")
5.81
>>> test_result("CC(C)c1nn(-c2ccc(F)cc2)c2nc(C(=O)O)cc(N3CCCN(C)CC3)c12")
5.80
>>> test_result("CN1CC[C@H](Oc2cc(C(=O)O)nc3c2c(C2CCC2)nn3-c2ccccc2)C1")
5.66
>>> test_result("O=C(O)c1cc(N2CCC(N3CCN(C4CC4)CC3)CC2)c2c(C3CCC3)nn(-c3ccc(F)cc3)c2n1")
6.29
>>> test_result("CC(C)c1nn(-c2cccc(N(C)C)c2)c2nc(C(=O)O)cc(-c3ccc(N(C)C4CCOCC4)cc3)c12")
6.42
>>> test_result("CC(C)c1nn(-c2ccc(F)cc2)c2nc(C(=O)O)cc(OCC3(C)CC(F)(F)C3)c12")
6.69

Could you now look at the following compound, please?
Briefly, pEC50 measured for O=C(O)c1cc(N2CCC(N3CCCC(F)C3)CC2)c2c(C3CCC3)nn(-c3ccc(F)cc3)c2n1 (centres unmarked) : 6.76

###

Target: ΔF508-CFTR (Homo sapiens, UniProt P13569, DEL508-508)
Construct: host or cells: CFBE41o-, doxycycline-inducible
Test: CFTR cell surface levels using HRP-tagged ΔF508-CFTR expressing CFBE cells, in the presence of a co-corrector
Type: cell-based
Settings: HRP-tagged ΔF508-CFTR expressing CFBE cells, in the presence of 3 μM co-corrector; read-out: EC50
measure: log10 EC50 (log10 of the value in nM)
The figures below represent log10 of EC50, where EC50 is stated in nM.

>>> test_result("CN(c1ccc(-c2cc(C(=O)O)nc3c2c(C2CCC2)nn3-c2cccc(N3CCCC3)c2)cc1)C1CCOCC1 [compound 251]")
2.55
>>> test_result("O=C(O)c1cc(N2C[C@@H](F)C[C@H]2CO)c2c(C3CCC3)nn(-c3ccccc3)c2n1 [compound 507]")
3.40

log10 EC50 reported for this compound Cc1nn(C2CCCCC2)c2nc(C(=O)O)cc(-c3ccc(N(C)C)nc3)c12 [compound 99] : 3.04

Sample COC(=O)N1CC(c2nn(-c3ccccc3)c3nc(C(=O)O)cc(-c4ccc(N5CCOCC5)cc4)c23)C1 [compound 86] ; log10 EC50 observed: 3.41

// O=C(O)c1cc(N2CCN3C[C@@H](F)C[C@H]3C2)c2c(C3CCC3)nn(-c3ccccc3)c2n1 [compound 515] : log10 EC50 value = 3.52

Lab book: log10 EC50 of COCC(C)N1CCN(c2cc(C(=O)O)nc3c2c(C2CCC2)nn3-c2ccccc2)CC1 (stereo not shown) [compound 682] noted as 2.06

GET /value?item= O=C(O)c1cc(OC[C@@H](F)C2CCOCC2)c2c(C3CCC3)nn(-c3ccccc3)c2n1 [compound 415] &field=log10 EC50 returns 2.40
